assay: Hygroscopicity test: weight gain of solid sample in humidity chamber at RH=80%; type: physicochemical; details: RH = 80%, 24 hrs
Recorded endpoint: Material appearance after 24 hrs at RH = 80%

Please review the entries below; each comes with its answer.
{"columns": ["Molecule", "Endpoint value"],
 "data": [
  ["CCOC(=O)[C@@H](N)Cc1ccc(O)c(O)c1.O=C(O)c1ccccc1 [Example 8, LDEE Benzoate]", "Semi-solid melt"],
  ["CCOC(=O)C(N)Cc1ccc(O)c(O)c1.O=C(O)C(O)c1ccccc1 (stereo not drawn) [R(−)Mandelate from chloroform, LDEE R(−)Mandelate]", "Semi-solid melt"],
  ["CC(=O)O.CCOC(=O)[C@@H](N)Cc1ccc(O)c(O)c1 [Example 2, LDEE Acetate]", "Semi-solid melt"],
  ["CCOC(=O)[C@@H](N)Cc1ccc(O)c(O)c1", "White flowable powder"]
]}

Find the recorded Material appearance after 24 hrs at RH = 80% belonging to CCOC(=O)[C@@H](N)Cc1ccc(O)c(O)c1.O=P(O)(O)O [Example 11, LDEE Phosphate] and report it.
Semi-solid melt

Can you handle CCO.CCOC(=O)[C@@H](N)Cc1ccc(O)c(O)c1.CCOC(=O)[C@@H](N)Cc1ccc(O)c(O)c1.O=C(O)CCC(=O)O [Example 22, LDEE Succinate Ethanolate] next?
Semi-solid melt

Then this molecule: CCO.CCOC(=O)[C@@H](N)Cc1ccc(O)c(O)c1.CCOC(=O)[C@@H](N)Cc1ccc(O)c(O)c1.O=C(O)CCCCC(=O)O [Example 21, LDEE Adipate Ethanolate]
Semi-solid melt

Do the same for CCOC(=O)[C@@H](N)Cc1ccc(O)c(O)c1.CS(=O)(=O)O [Example 3, LDEE Mesylate] please
Syrup

Try this molecule next: CCOC(=O)[C@@H](N)Cc1ccc(O)c(O)c1.O=C(O)C(O)C(O)C(=O)O [Example 5, LDEE Hydrogen L(+)Tartrate]
Syrup

And CCOC(=O)[C@@H](N)Cc1ccc(O)c(O)c1.O=C(O)C(O)C(O)C(=O)O [Example 4, LDEE L(+)Tartrate] ?
Syrup

Item: CCOC(=O)[C@@H](N)Cc1ccc(O)c(O)c1.CCOC(=O)[C@@H](N)Cc1ccc(O)c(O)c1.O.O.O=C(O)CCC(=O)O [Example 23, LDEE Succinate Dihydrate]
White flowable powder

What do you have for CCOC(=O)C(N)Cc1ccc(O)c(O)c1.O=C(O)C(O)C(O)C(=O)O (mixture of isomers) [Example 7, LDEE (LD)Tartrate] ?
Syrup

Check CCOC(=O)[C@@H](N)Cc1ccc(O)c(O)c1.O=C(O)[C@@H](O)c1ccccc1 [Example 15, LDEE S(+)Mandelate] too.
Semi-solid melt

###

experiment: Hygroscopicity test: weight gain of solid sample in humidity chamber at RH=80%; format: physicochemical; conditions: RH=80% screening
Recorded endpoint: hygroscopicity (in words)

{"columns": ["Molecule", "Recorded endpoint", "Endpoint value"],
 "data": [
  ["CCOC(=O)[C@@H](N)Cc1ccc(O)c(O)c1.CS(=O)(=O)O [Example 3, LDEE Mesylate]", "hygroscopicity (in words)", "hygroscopic"],
  ["CCOC(=O)[C@@H](N)Cc1ccc(O)c(O)c1.O=C(O)C(O)C(O)C(=O)O [Example 5, LDEE Hydrogen L(+)Tartrate]", "hygroscopicity (in words)", "hygroscopic"],
  ["CCOC(=O)[C@@H](N)Cc1ccc(O)c(O)c1.O=C(O)[C@@H](O)c1ccccc1 [Example 15, LDEE S(+)Mandelate]", "hygroscopicity (in words)", "hygroscopic"]
]}
